Target: T1, human RANKL protein (human, UniProt O14788 140-317, limits assumed)
T1 sequence (looked up): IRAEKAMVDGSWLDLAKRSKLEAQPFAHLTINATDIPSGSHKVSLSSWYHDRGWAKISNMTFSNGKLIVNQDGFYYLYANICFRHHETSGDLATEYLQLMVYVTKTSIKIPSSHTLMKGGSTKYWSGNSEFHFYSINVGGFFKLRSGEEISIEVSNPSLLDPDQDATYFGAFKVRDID
Test: competition ELISA: RANKL (0.5 ug/ml) pre-incubated with the antibody, then binding to coated human RANK (8 ug/ml) detected; blocked partner RANK
This listing pairs binders with measured IC50.
I only need the number, in µg/mL, no unit after it.

clone 379 rabbit anti-RANKL antibody (antibody, V domains shown) VH: QEQLKESGGGLVTPGGTLTLTCTASRFSLINIGMSWVRQAPGRGLEWIGYIYSGGSPYYANWAKGRFTISRTSTTVDLKMTSLTTEDTATYFCARHASDGGWYLDIWGPGTLVTVSL VL: DMIQTPASVEVAVGGTVTINCQASQSIGSNLAWYQQKPGQPPKLLIYLASTLPSGVPSRFKGSGSGTQFTFTISDVECTDAATYYCQQAYTASNVDNAFGGGTEVVVK; 0.0614

Find the recorded IC50 belonging to clone 383 rabbit anti-RANKL antibody (antibody, V domains shown) VH: QSLEESGGDLVKPGASLTLTCTASGFSFSRYVCWVRQAPGKGLEWIGCIAAGSSGYTYYASWAKGRLTISKTSSTTLTLQMTSLTVADTATYFCARSGDSYVGYFNLWGPGTLVTVSS VL: IVMTQTPASVEAAVGGTVTIKCQASQNIYNYLAWYQQQPGQPPKLLIYSASNLASGVSSRFKGSGSGTEFTLTISDLECGDAATYYCQSYYDSSRISYGSAFGGGTEVVVK and report it. 0.0621

Next binder up: clone 388 rabbit anti-RANKL antibody (antibody, V domains shown) VH: QSVEESGGRLVTPGTPLTLTCTVSGFSLSSGVVSWVRQAPGKGLEWIGYAWSGGPTYYANWAKGRFTISKSSTTVDLKITSPTTADTATYFCARGYNGMDPWGPGTLVTVSS VL: DMTQTPASVEVAVGGTVTIKCQASQNIGSNLAWYQQKPGQPPKLLIYKASTLASGVPSRFRGSGSGTEFTLAISDLECADAATYYCQQGYTTKDVVNPFGGGTEVVVK 0.161
